tested on: 186277-243-T-J2-PDC multi-cell spheroid viability; assay: Anticancer human tumor 186277-243-T-J2-PDC patient-derived colon adenocarcinoma cell line growth inhibition [PI3K]; conditions: second compound 10 µM; first compound 3.16 µM; active = viability on the fitted dose curve at most 10% of control; inactive = the rest
Classes used: Yes = active, No = inactive

>>> class_name("C=CC(=O)N1CCN(c2nc(=O)n(-c3c(C)ccnc3C(C)C)c3nc(-c4c(O)cccc4F)c(F)cc23)C(C)C1 (stereo not drawn) + Cc1nc(NC(=O)N2CCCC2C(N)=O)sc1-c1ccnc(C(C)(C)C(F)(F)F)c1")
"No"
>>> class_name("CC1(C)CCC(Nc2ncc(C(F)(F)F)c(-c3c[nH]c4c(P(C)(C)=O)c(C#N)ccc34)n2)CN1 (stereo not drawn) + Cc1nc(NC(=O)N2CCCC2C(N)=O)sc1-c1ccnc(C(C)(C)C(F)(F)F)c1")
"Yes"
>>> class_name("Cn1ncc(Cl)c1-c1cc(C(=O)NC(CN)Cc2cccc(F)c2)sc1Cl (stereo not drawn) + CC(Nc1ncnc2nc[nH]c12)c1cc2cccc(Cl)c2c(=O)n1-c1ccccc1")
"No"

* * *

test system: 186277-243-T-J2-PDC multi-cell spheroid viability; experiment: Anticancer human tumor 186277-243-T-J2-PDC cell line growth inhibition [PI3K]; details: second compound 0.1 µM; first compound 3.16 µM; hits give low values;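 also: spheroids exposed to compounds for seven days before viability reading; 100% = DMSO vehicle control viability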
QUANTITY KIND: viability, T/C

>>> experimental_result("C[C@@H](NC(=O)c1ncnc(N)c1Cl)c1ncc(C(=O)Nc2cc(C(F)(F)F)c(Cl)cn2)s1 + CC(Nc1ncnc2nc[nH]c12)c1cc2cccc(Cl)c2c(=O)n1-c1ccccc1")
"108%"
>>> experimental_result("Cn1ncc(Cl)c1-c1cc(C(=O)NC(CN)Cc2cccc(F)c2)sc1Cl (centres undefined) + Cc1nc(NC(=O)N2CCCC2C(N)=O)sc1-c1ccnc(C(C)(C)C(F)(F)F)c1")
"33.2%"
>>> experimental_result("CC1(C)CCC(Nc2ncc(C(F)(F)F)c(-c3c[nH]c4c(P(C)(C)=O)c(C#N)ccc34)n2)CN1 (centres undefined) + CC(Nc1ncnc2nc[nH]c12)c1cc2cccc(Cl)c2c(=O)n1-c1ccccc1")
"68.6%"
>>> experimental_result("C[C@@H](NC(=O)c1ncnc(N)c1Cl)c1ncc(C(=O)Nc2cc(C(F)(F)F)c(Cl)cn2)s1 + COc1c(OCCCN2CCOCC2)ccc2c3n(c(=NC(=O)c4cnc(N)nc4)nc12)CCN3")
"7.38%"
>>> experimental_result("CC(Cn1ccc(-c2ccc(C#N)c(Cl)c2)n1)NC(=O)c1cc(C(C)O)[nH]n1 (centres undefined) + Cc1nc(NC(=O)N2CCCC2C(N)=O)sc1-c1ccnc(C(C)(C)C(F)(F)F)c1")
"107%"
>>> experimental_result("CCCS(=O)(=O)Nc1ccc(F)c(C(=O)c2c[nH]c3ncc(-c4ccc(Cl)cc4)cc23)c1F + CC(Nc1ncnc2nc[nH]c12)c1cc2cccc(Cl)c2c(=O)n1-c1ccccc1")
"83.7%"
>>> experimental_result("CCCS(=O)(=O)Nc1ccc(F)c(C(=O)c2c[nH]c3ncc(-c4ccc(Cl)cc4)cc23)c1F + Cc1nc(NC(=O)N2CCCC2C(N)=O)sc1-c1ccnc(C(C)(C)C(F)(F)F)c1")
"87.2%"
>>> experimental_result("CC(Cn1ccc(-c2ccc(C#N)c(Cl)c2)n1)NC(=O)c1cc(C(C)O)[nH]n1 (centres undefined) + CC(Nc1ccc2c(c1)OCCn1cc(N3C(=O)OCC3C(F)F)nc1-2)C(N)=O")
"88.8%"
>>> experimental_result("C#Cc1c(F)ccc2cc(O)cc(-c3ncc4c(N5CC6CCC(C5)N6)nc(OCC56CCCN5CC(F)C6)nc4c3F)c12 (centres undefined) + CC(Nc1ccc2c(c1)OCCn1cc(N3C(=O)OCC3C(F)F)nc1-2)C(N)=O")
"6.59%"
>>> experimental_result("CC1(C)CCC(CN2CCN(c3ccc(C(=O)NS(=O)(=O)c4ccc(NCC5CCOCC5)c([N+](=O)[O-])c4)c(Oc4cnc5[nH]ccc5c4)c3)CC2)=C(c2ccc(Cl)cc2)C1 + Cc1nc(NC(=O)N2CCCC2C(N)=O)sc1-c1ccnc(C(C)(C)C(F)(F)F)c1")
"69.8%"
>>> experimental_result("Cn1ncc(Cl)c1-c1cc(C(=O)NC(CN)Cc2cccc(F)c2)sc1Cl (centres undefined) + CC(Nc1ncnc2nc[nH]c12)c1cc2cccc(Cl)c2c(=O)n1-c1ccccc1")
"44.3%"
>>> experimental_result("C[C@@H](NC(=O)c1ncnc(N)c1Cl)c1ncc(C(=O)Nc2cc(C(F)(F)F)c(Cl)cn2)s1 + Cc1nc(NC(=O)N2CCCC2C(N)=O)sc1-c1ccnc(C(C)(C)C(F)(F)F)c1")
"99.2%"
>>> experimental_result("CC(C)NCC(C(=O)N1CCN(c2ncnc3c2C(C)CC3O)CC1)c1ccc(Cl)cc1 (centres undefined) + Cc1nc(NC(=O)N2CCCC2C(N)=O)sc1-c1ccnc(C(C)(C)C(F)(F)F)c1")
"23.5%"
>>> experimental_result("CC(C)NCC(C(=O)N1CCN(c2ncnc3c2C(C)CC3O)CC1)c1ccc(Cl)cc1 (centres undefined) + CC(Nc1ncnc2nc[nH]c12)c1cc2cccc(Cl)c2c(=O)n1-c1ccccc1")
"40.1%"
>>> experimental_result("CC1(C)CCC(Nc2ncc(C(F)(F)F)c(-c3c[nH]c4c(P(C)(C)=O)c(C#N)ccc34)n2)CN1 (centres undefined) + CC(Nc1ccc2c(c1)OCCn1cc(N3C(=O)OCC3C(F)F)nc1-2)C(N)=O")
"43.6%"
>>> experimental_result("C=CC(=O)N1CCN(c2nc(=O)n(-c3c(C)ccnc3C(C)C)c3nc(-c4c(O)cccc4F)c(F)cc23)C(C)C1 (centres undefined) + CC(Nc1ccc2c(c1)OCCn1cc(N3C(=O)OCC3C(F)F)nc1-2)C(N)=O")
"86.6%"
>>> experimental_result("C[C@@H](NC(=O)c1ncnc(N)c1Cl)c1ncc(C(=O)Nc2cc(C(F)(F)F)c(Cl)cn2)s1 + CC(Nc1ccc2c(c1)OCCn1cc(N3C(=O)OCC3C(F)F)nc1-2)C(N)=O")
"72.8%"
>>> experimental_result("C=CC(=O)N1CCN(c2nc(=O)n(-c3c(C)ccnc3C(C)C)c3nc(-c4c(O)cccc4F)c(F)cc23)C(C)C1 (centres undefined) + Cc1nc(NC(=O)N2CCCC2C(N)=O)sc1-c1ccnc(C(C)(C)C(F)(F)F)c1")
"92%"
>>> experimental_result("Cn1nccc1Nc1nccc(-c2ccn(C(CO)c3ccc(Cl)c(F)c3)c(=O)c2)n1 (centres undefined) + COc1c(OCCCN2CCOCC2)ccc2c3n(c(=NC(=O)c4cnc(N)nc4)nc12)CCN3")
"2.2%"

* * *

// reported viability, T/C for each item listed
test system: 186277-243-T-J2-PDC multi-cell spheroid viability; experiment: Anticancer human tumor 186277-243-T-J2-PDC cell line growth inhibition [PI3K]; details: second compound 0.1 µM; first compound 1 µM; hits give low values;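 also: spheroids exposed to compounds for seven days before viability reading; 100% = DMSO vehicle control viability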
QUANTITY KIND: viability, T/C (%)

>>> experimental_result("Cn1ncc(Cl)c1-c1cc(C(=O)NC(CN)Cc2cccc(F)c2)sc1Cl (stereo unspecified) + CC(Nc1ncnc2nc[nH]c12)c1cc2cccc(Cl)c2c(=O)n1-c1ccccc1")
56.1
>>> experimental_result("C#Cc1c(F)ccc2cc(O)cc(-c3ncc4c(N5CC6CCC(C5)N6)nc(OCC56CCCN5CC(F)C6)nc4c3F)c12 (stereo unspecified) + CC(Nc1ncnc2nc[nH]c12)c1cc2cccc(Cl)c2c(=O)n1-c1ccccc1")
13.3
>>> experimental_result("Cn1nccc1Nc1nccc(-c2ccn(C(CO)c3ccc(Cl)c(F)c3)c(=O)c2)n1 (stereo unspecified) + CC(Nc1ccc2c(c1)OCCn1cc(N3C(=O)OCC3C(F)F)nc1-2)C(N)=O")
28.9
>>> experimental_result("CCN1CCN(Cc2ccc(Nc3ncc(F)c(-c4cc(F)c5nc(C)n(C(C)C)c5c4)n3)nc2)CC1 + CC(Nc1ccc2c(c1)OCCn1cc(N3C(=O)OCC3C(F)F)nc1-2)C(N)=O")
62.5
>>> experimental_result("Cn1nccc1Nc1nccc(-c2ccn(C(CO)c3ccc(Cl)c(F)c3)c(=O)c2)n1 (stereo unspecified) + COc1c(OCCCN2CCOCC2)ccc2c3n(c(=NC(=O)c4cnc(N)nc4)nc12)CCN3")
2.91
>>> experimental_result("C=CC(=O)N1CCN(c2nc(=O)n(-c3c(C)ccnc3C(C)C)c3nc(-c4c(O)cccc4F)c(F)cc23)C(C)C1 (stereo unspecified) + CC(Nc1ccc2c(c1)OCCn1cc(N3C(=O)OCC3C(F)F)nc1-2)C(N)=O")
94.4
>>> experimental_result("C[C@@H](NC(=O)c1ncnc(N)c1Cl)c1ncc(C(=O)Nc2cc(C(F)(F)F)c(Cl)cn2)s1 + CC(Nc1ccc2c(c1)OCCn1cc(N3C(=O)OCC3C(F)F)nc1-2)C(N)=O")
108
>>> experimental_result("Cn1ncc(Cl)c1-c1cc(C(=O)NC(CN)Cc2cccc(F)c2)sc1Cl (stereo unspecified) + COc1c(OCCCN2CCOCC2)ccc2c3n(c(=NC(=O)c4cnc(N)nc4)nc12)CCN3")
6.79
>>> experimental_result("CCCS(=O)(=O)Nc1ccc(F)c(C(=O)c2c[nH]c3ncc(-c4ccc(Cl)cc4)cc23)c1F + COc1c(OCCCN2CCOCC2)ccc2c3n(c(=NC(=O)c4cnc(N)nc4)nc12)CCN3")
46.7
>>> experimental_result("CC(Cn1ccc(-c2ccc(C#N)c(Cl)c2)n1)NC(=O)c1cc(C(C)O)[nH]n1 (stereo unspecified) + COc1c(OCCCN2CCOCC2)ccc2c3n(c(=NC(=O)c4cnc(N)nc4)nc12)CCN3")
15.9
>>> experimental_result("C[C@@H](NC(=O)c1ncnc(N)c1Cl)c1ncc(C(=O)Nc2cc(C(F)(F)F)c(Cl)cn2)s1 + Cc1nc(NC(=O)N2CCCC2C(N)=O)sc1-c1ccnc(C(C)(C)C(F)(F)F)c1")
108

// provenance: PubChem BioAssay AID1963983
